Reference source for all entries: paper PMC12102759

B1: NOTCH4 peptide 1606-1621 (Neurogenic locus notch homolog protein 4), 16-mer library wild type / NSP9 (ORF1ab Nsp9, residues 4141-4253) (parent)
chain 1: QGAWLGAPEPWEPLLD
chain 2: NNELSPVALRQMSCAAGTTQTACTDDNALAYYNTTKGGRFVLALLSDLQDLKWARFPKSDGTGTIYTELEPPCRFVTDTPKGPKVKYLYFIKGLNNLNRGMVLGSLAATVRLQ

Variants of: B1
Conditions: with NSP9 (ORF1ab Nsp9, residues 4141-4253); bait immobilised on MaxiSorp plates (10 µg), library pre-cleared on GST, 2 h binding at 4 °C, five washes; one round per day, days 1-4; value from days 2 and 3; keep out of graded; scale: average fractional NGS count over selection days 2 and 3
PARAMETER: screen value

Below: 6 variants and their reported screen value.
So, chain 1 W4H ? Its screen value was 0

Reported screen value for chain 1 W11K was 3.16e-05

Looking up chain 1 L14N , I see its screen value listed as 1.14e-05

The measured screen value associated with chain 1 G2H reads 0

# variant chain 1 W4I ; its screen value = 0

The variant listed as chain 1 W4T has a reported screen value of 0

Continuing:
Please fill in: screen value reported for chain 1 G6Q = 0

// chain 1 G2L : screen value value = 0

screen value for chain 1 Q1S is 7.35e-05

So, chain 1 A3H ? Its screen value was 3.7e-05

# screen value (variant: chain 1 L5V ) is 3.16e-05

Data point: chain 1 Q1V ; screen value = 3.52e-05

screen value in this record for chain 1 A3E : 2.97e-05
